kon values, listed per item
Molecular target: T1, human PSMA expressed with an N-terminal hexahistidine tag (6h.hPSMA, R&D) (human, UniProt Q04609 44-750)
T1 construct: Bought soluble protein; also called soluble human PSMA; human PSMA protein
T1 sequence (Q04609 other isoform, or with tags, fused parts or gaps limits assumed): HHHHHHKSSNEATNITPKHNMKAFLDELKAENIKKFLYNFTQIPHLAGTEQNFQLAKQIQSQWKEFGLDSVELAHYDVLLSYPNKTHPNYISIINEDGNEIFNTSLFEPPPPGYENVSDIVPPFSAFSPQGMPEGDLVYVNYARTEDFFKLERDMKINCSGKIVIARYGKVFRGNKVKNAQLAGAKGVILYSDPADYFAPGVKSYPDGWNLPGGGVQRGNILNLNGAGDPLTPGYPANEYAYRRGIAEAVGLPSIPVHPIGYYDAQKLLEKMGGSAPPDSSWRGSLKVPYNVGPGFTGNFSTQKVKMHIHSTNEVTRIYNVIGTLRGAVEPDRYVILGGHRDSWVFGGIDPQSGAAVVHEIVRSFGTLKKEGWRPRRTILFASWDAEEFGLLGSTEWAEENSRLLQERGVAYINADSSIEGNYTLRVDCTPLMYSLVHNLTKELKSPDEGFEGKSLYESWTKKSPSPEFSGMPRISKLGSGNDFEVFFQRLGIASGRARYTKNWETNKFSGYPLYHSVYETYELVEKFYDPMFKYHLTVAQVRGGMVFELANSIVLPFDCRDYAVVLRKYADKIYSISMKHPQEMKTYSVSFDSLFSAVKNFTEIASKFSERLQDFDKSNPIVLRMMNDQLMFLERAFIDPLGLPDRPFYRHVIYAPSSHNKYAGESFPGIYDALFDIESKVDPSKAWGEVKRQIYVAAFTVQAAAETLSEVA
Test: SPR Biacore T-200, 37 C, antibody-capture (anti-human Fc), 6h.hPSMA as analyte
Numbers only here, please. The scale is M⁻¹ s⁻¹.

BINDER	RESULT
H1H11792P2 (antibody, human IgG1, V domains shown, human IgG1) VH: QVQLVESGGGVVQPGRSLRLSCAASGFTFSSYGMHWVRQPPGKGLEWVAIMSYDGSNKYYADSVKGRFTISRDNSKNTLYLQMNSLRVEDTAVYYCAKDQYYDFLTFDYTLDYWGQGTLVTVSS VL: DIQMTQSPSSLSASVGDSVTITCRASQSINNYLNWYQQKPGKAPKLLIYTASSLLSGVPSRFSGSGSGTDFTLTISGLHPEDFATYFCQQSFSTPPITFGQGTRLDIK	473000

Now turn to the next binder.
Incoming: For the binder shown here, H1H11837P2 (antibody, human IgG1, V domains shown, human IgG1) VH: QVQLVESGGGVVQPGRSLRLSCAASGFTFSSYGMHWVRQAPGKGLEWVTFISYDGNNKYYSDSVKGRFAISRDNSKNTLYLQMNSLRAEDTSVYFCAKDQYYDFLTDFGVFDYWGQGTLVTVSS VL: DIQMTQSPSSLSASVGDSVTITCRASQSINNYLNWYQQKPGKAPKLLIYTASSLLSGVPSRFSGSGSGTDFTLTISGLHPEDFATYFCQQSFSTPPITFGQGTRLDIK , give the reported kon.
Outgoing: 441000

Reference for the values: patent US20190127480A1
